IC50 reference
molecular target: Human ST2-fc (human) (UniProt Q01638); assay: competition ELISA, coated ST2-fc, competitor IL33-his

binder	IC50
5887-41-H1L1 (antibody, human IgG4 S228P, kappa, V domains shown) VH: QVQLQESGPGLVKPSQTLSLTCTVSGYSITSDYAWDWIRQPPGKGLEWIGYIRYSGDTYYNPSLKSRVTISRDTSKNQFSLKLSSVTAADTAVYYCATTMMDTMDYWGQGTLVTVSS VL: DIVLTQSPASLAVSPGQRATITCRASKSVSTSGNSYMHWYQQKPGQPPKLLIYLASNLESGVPARFSGSGSGTDFTLTINPVEANDAANYYCQHSREFPLTFGQGTKLEIKR	2.23 µg/mL

Consider the additional binder presented here.
Q: Item 5888-116-H3L1 (antibody, human IgG4 S228P, kappa, V domains shown) VH: QVQLVQSGAEVKKPGASVKVSCKASGYTFTDSEMYWVRQAPGQGLEWMGAIDPETGDTAFNQKFKGRVTMTADKSTSTAYMELSSLRSEDTAVYYCTRAFDNDNDDAFAYWGQGTMVTVSS VL: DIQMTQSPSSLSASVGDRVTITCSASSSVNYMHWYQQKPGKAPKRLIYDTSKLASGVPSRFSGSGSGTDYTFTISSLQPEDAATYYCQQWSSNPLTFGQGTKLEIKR has what recorded IC50?
Result: 0.611 µg/mL
